Test system: Human Heme Oxygenase-1 (HMOX-1)
Assay: ELISA assay to measure human heme oxygenase-1 (HMOX-1) in HepG2 lysate
Format: cell-based
Details: human HMOX1 protein level in HepG2 lysate; * = average of 2 or more EC50 determinations; NA = Not Active; read-out: EC50
hey, just use Criterion met if measured EC50 is less than 2000 nM, otherwise Criterion not met

>>> df
                                    compound     discrete_label
 0  COCCNC(=O)c1ccc2c(c1)nc(Nc1nc3cc(OC(F)(F)F)ccc3[nH]1)n2C [Example 14]  Criterion not met
 1  Cn1c(Nc2nc3ccc(OC(F)(F)F)cc3o2)nc2cc(C(=O)O)ccc21 [Example 44]      Criterion met
 2  Cn1c(Nc2nc3cc(C(=O)NCCOCCO)ccc3o2)nc2ccccc21 [Example 118]  Criterion not met
 3  CCn1c(Nc2nc3ccc(OC(F)(F)F)cc3o2)nc2cc(C(=O)NCCO)ccc21 [Example 86]      Criterion met
 4  Cn1c(Nc2nc3cc(F)ccc3[nH]2)nc2cc(C(=O)O)ccc21 [Example 73]  Criterion not met
 5  COCCNC(=O)c1ccc2c(c1)nc(Nc1nc3ccc(OC(F)(F)F)cc3o1)n2C1CCOCC1 [Example 80]      Criterion met
 6  Cn1c(Nc2nc3ccc(C4CC4)cc3o2)nc2cc(C(=O)O)ccc21 [Example 115]  Criterion not met
 7  Cn1c(Nc2nc3ccc(OCC(F)(F)F)cc3o2)nc2cc(C(=O)NCCO)ccc21 [Example 100]      Criterion met
 8  Cn1c(Nc2nc3ccc(C(F)(F)F)cc3o2)nc2cc(C(=O)NOCCO)ccc21 [Example 125]      Criterion met
 9  CN(C)CC(=O)NCCNC(=O)c1ccc2c(c1)nc(Nc1nc3ccc(OC(F)(F)F)cc3o1)n2C [Example 49]      Criterion met
10  COCCNC(=O)c1ccc2c(c1)nc(Nc1nc3ccc(C4CC4)cc3o1)n2C [Example 116]  Criterion not met
11  Cn1c(Nc2nc3ccc(OC(F)(F)F)cc3o2)nc2cc(C(=O)NCCO)ccc21 [Example 53]      Criterion met
12  Cn1c(Nc2nc3ccc(OCC(F)(F)F)cc3o2)nc2cc(C(=O)O)ccc21 [Example 98]  Criterion not met
13  COCCNC(=O)c1ccc2c(c1)nc(Nc1nc3ccc(C(F)(F)F)cc3o1)n2C [Example 32]      Criterion met
14  Cn1c(Nc2nc3ccc(OCCO)cc3o2)nc2cc(C(=O)NCCO)ccc21 [Example 103]  Criterion not met
15  Cn1c(Nc2nc3ccccc3o2)nc2cc(C(=O)O)ccc21 [Example 1h]  Criterion not met
16  COCCNC(=O)c1ccc2c(c1)nc(Nc1nc3ccc(OC(F)(F)F)cc3o1)n2CCOC [Example 78]  Criterion not met
17  CCn1c(Nc2nc3ccc(OC(F)(F)F)cc3o2)nc2cc(C(=O)NCCOC)ccc21 [Example 85]      Criterion met
18  COCCNC(=O)c1ccc2c(c1)nc(Nc1nc3ccccc3o1)n2C [Example 1i]      Criterion met
19  Cn1c(Nc2nc3ccc(OC(F)F)cc3o2)nc2cc(C(=O)O)ccc21 [Example 62]  Criterion not met
20  COCCOc1ccc2nc(Nc3nc4cc(C(=O)NCCOCCO)ccc4n3C)oc2c1 [Example 58]      Criterion met
21  CN1CCC(n2c(Nc3nc4ccc(OC(F)(F)F)cc4s3)nc3cc(C(=O)O)ccc32)CC1 [Example 3d]  Criterion not met
22  COCCNC(=O)c1ccc2c(c1)nc(Nc1nc3ccc(OC(F)(F)F)cc3o1)n2C [Example 45]      Criterion met
23  O=C(O)c1ccc2c(c1)nc(Nc1nc3ccc(OC(F)(F)F)cc3o1)n2C1CCOCC1 [Example 79]  Criterion not met
24  Cn1c(Nc2nc3ccc(C(F)(F)F)cc3o2)nc2cc(C(=O)NCCOCCO)ccc21 [Example 34]      Criterion met
25  O=C(O)c1ccc2c(c1)nc(Nc1nc3ccc(OC(F)(F)F)cc3o1)n2CC1CCOC1 (stereo not shown) [Example 87]  Criterion not met
26  CC(O)COCCNC(=O)c1ccc2c(c1)nc(Nc1nc3ccc(C(F)(F)F)cc3o1)n2C (stereo not shown) [Example 38]      Criterion met
27  Cn1c(Nc2nc3ccc(Cl)cc3o2)nc2cc(C(=O)NCCO)ccc21 [Example 97]      Criterion met
28  Cn1c(Nc2nc3ccc(OC(F)(F)F)cc3s2)nc2cc(C(=O)NCCOCCO)ccc21 [Comparator 1, reference compound]      Criterion met
29  COCCNC(=O)c1ccc2c(c1)nc(Nc1nc3ccccc3[nH]1)n2C [Example 12]  Criterion not met
30  Cn1c(Nc2nc3ccc(C(F)(F)F)cc3o2)nc2cc(C(=O)NCCO)ccc21 [Example 33]      Criterion met
31  Cn1c(Nc2nc3ccc(Br)cc3o2)nc2cc(C(=O)O)ccc21 [Example 91]  Criterion not met

====

Test system: Human Heme Oxygenase-1 (HMOX-1)
Test: ELISA assay to measure human heme oxygenase-1 (HMOX-1) in HepG2 lysate
Type: cell-based
Conditions: human HMOX1 protein level in HepG2 lysate; * = average of 2 or more EC50 determinations; NA = Not Active; read-out: EC50
pEC50: −log10 of the molar value.
Result type: pEC50

>>> print(df.to_string())
                                    molecule  result_type  reported_measurement
 0  COCCOc1ccc2nc(Nc3nc4cc(C(=O)NCCO)ccc4n3C)oc2c1        pEC50                  5.92
 1  Cn1c(Nc2nc3ccc(OC(F)F)cc3o2)nc2cc(C(=O)NCCO)ccc21        pEC50                  5.74
 2  COCCNC(=O)c1ccc2c(c1)nc(Nc1nc3ccc(OCC(F)(F)F)cc3o1)n2C        pEC50                  6.04
 3  CCn1c(Nc2nc3ccc(OC(F)(F)F)cc3o2)nc2cc(C(=O)O)ccc21        pEC50                  5.27
 4  Cn1c(Nc2nc3ccc(OC(F)(F)F)cc3o2)nc2cc(C(=O)NCC3(O)COC3)ccc21        pEC50                  6.00
 5  Cn1c(Nc2nc3ccc(OCCO)cc3o2)nc2cc(C(=O)NOCCO)ccc21        pEC50                  5.47
 6  COCCn1c(Nc2nc3ccc(OC(F)(F)F)cc3o2)nc2cc(C(=O)O)ccc21        pEC50                  5.39
 7  COCCNC(=O)c1ccc2c(c1)nc(Nc1nc3cc(F)ccc3o1)n2C        pEC50                  6.04
 8  Cn1c(Nc2nc3ccc(OCCO)cc3o2)nc2cc(C(=O)NCCOCCO)ccc21        pEC50                  5.43
 9  COCCONC(=O)c1ccc2c(c1)nc(Nc1nc3ccc(C(F)(F)F)cc3o1)n2C        pEC50                  6.70
10  COCCNC(=O)c1ccc2c(c1)nc(Nc1nc3ccc(C(C)C)cc3o1)n2C        pEC50                  6.15
11  CN(C)CC(=O)NCCONC(=O)c1ccc2c(c1)nc(Nc1nc3ccccc3o1)n2C        pEC50                  5.85
12  Cn1c(Nc2nc3ccc(C(F)(F)F)cc3o2)nc2cc(C(=O)NCC(O)CO)ccc21 (centres unmarked)        pEC50                  6.02
13  Cn1c(Nc2nc3ccccc3o2)nc2cc(C(O)C(F)(F)F)ccc21 (centres unmarked)        pEC50                  5.48
14  CN(C)CCNC(=O)c1ccc2c(c1)nc(Nc1nc3ccccc3o1)n2C        pEC50                  5.96
15  O=C(NCCO)c1ccc2c(c1)nc(Nc1nc3ccc(OC(F)(F)F)cc3o1)n2CC1(O)COC1        pEC50                  5.80
16  COCCNC(=O)c1ccc2c(c1)nc(Nc1nc3ccc(OC(F)F)cc3o1)n2C        pEC50                  5.89

====

Molecular target: hERG channel (Homo sapiens, UniProt Q12809)
Sequence (Q12809 whole entry): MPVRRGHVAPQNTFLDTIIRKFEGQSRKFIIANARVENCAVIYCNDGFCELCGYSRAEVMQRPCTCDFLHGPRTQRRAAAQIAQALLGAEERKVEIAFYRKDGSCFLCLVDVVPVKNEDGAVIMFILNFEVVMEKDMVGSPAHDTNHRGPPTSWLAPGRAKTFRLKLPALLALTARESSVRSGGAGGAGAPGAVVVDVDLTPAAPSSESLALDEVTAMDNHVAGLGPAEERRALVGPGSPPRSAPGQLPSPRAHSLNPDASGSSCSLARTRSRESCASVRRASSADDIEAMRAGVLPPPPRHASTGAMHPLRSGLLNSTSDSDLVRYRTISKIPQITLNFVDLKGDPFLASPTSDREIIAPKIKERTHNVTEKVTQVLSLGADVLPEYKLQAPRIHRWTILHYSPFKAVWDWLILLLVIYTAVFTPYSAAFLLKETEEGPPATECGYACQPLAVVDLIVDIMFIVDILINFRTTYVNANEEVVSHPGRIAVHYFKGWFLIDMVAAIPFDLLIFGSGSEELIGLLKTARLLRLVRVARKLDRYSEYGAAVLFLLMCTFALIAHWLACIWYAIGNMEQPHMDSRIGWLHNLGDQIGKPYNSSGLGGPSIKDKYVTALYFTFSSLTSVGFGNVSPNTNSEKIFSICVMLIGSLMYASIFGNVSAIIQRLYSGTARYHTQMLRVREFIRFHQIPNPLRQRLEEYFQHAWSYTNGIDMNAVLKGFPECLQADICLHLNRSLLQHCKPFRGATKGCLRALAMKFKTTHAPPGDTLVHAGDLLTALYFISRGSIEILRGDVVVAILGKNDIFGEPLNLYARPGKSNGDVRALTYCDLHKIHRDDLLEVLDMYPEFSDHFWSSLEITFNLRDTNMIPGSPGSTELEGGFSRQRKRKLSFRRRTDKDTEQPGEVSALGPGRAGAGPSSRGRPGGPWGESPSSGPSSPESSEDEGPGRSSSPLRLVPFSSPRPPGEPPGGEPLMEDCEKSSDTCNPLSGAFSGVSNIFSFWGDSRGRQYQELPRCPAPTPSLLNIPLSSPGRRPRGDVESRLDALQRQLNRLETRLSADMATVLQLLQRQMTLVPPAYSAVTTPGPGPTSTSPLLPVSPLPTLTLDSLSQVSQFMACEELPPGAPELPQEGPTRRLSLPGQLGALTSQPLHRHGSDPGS
Assay: hERG manual patch clamp assay
Assay type: cell-based
Details: HEK 293 cells stably expressing hERG channel, pH 7.35, 10 μM compound
Result type: inhibition at 10 µM (%)

                               given_smiles          result_type  display_unit  reported_measurement
0  COCCNC(=O)c1ccc2c(c1)nc(Nc1nc3ccc(F)cc3o1)n2C  inhibition at 10 µM             %                    38
1  COCCOc1ccc2nc(Nc3nc4cc(C(=O)NOCCO)ccc4n3C)oc2c1  inhibition at 10 µM             %                    18
2  CN(C)CCONC(=O)c1ccc2c(c1)nc(Nc1nc3ccc(C(F)(F)F)cc3o1)n2C  inhibition at 10 µM             %                    87
3  Cn1c(Nc2nc3ccc(C(F)(F)F)cc3o2)nc2cc(C(=O)NCCOCCO)ccc21  inhibition at 10 µM             %                    61
4  Cn1c(Nc2nc3ccccc3o2)nc2cc(C(=O)NCCN3CCCC3)ccc21  inhibition at 10 µM             %                    64
